- Tested on: UGT
- testDetails: Metabolic stability in CD-1 mouse liver S9 fraction assessed as UGT-mediated glucuronidation of compound by measuring compound remaining at 5 uM preincubated for 3 mins followed by UDPGA addition measured after 60 mins by HPLC/MS analysis
- Format: ADME
- reportedConditions: read-out: Stability
For each entry below, report its remaining at 1 h, 5 µM value.
Numbers only, in %.

chemicalsmiles=CCCCCCCCc1ccc(OCC(=O)Cn2cc(C(=O)CCCCCO)c3cc(C(=O)O)ccc32)cc1 systemtested=UGT measuredparameter="remaining at 1 h, 5 µM" val=27

Let us examine a further case.
Q. Determine its reported remaining at 1 h, 5 µM: CCCCCCCCc1ccc(OCC(=O)Cn2cc(C(=O)CCCCC)c3cc(C(=O)O)ccc32)cc1
A. 78

---

- systemTested: NADPH--cytochrome P450 reductase (Rattus norvegicus, UniProt P00388)
- testDetails: Metabolic stability in rat liver S9 fraction assessed as NADPH CYP450 reductase-mediated compound metabolism by measuring compound remaining in presence of NADPH at 20 uM after 30 mins by HPLC method
- Type: ADME
- reportedConditions: read-out: Stability
measuredParameter: remaining at 0.5 h, 20 µM
Express the reported value numerically, then name its unit.

chemicalsmiles=CCCCCCCCc1ccc(OCC(=O)Cn2cc(C(=O)CCCCC)c3cc(C(=O)O)ccc32)cc1 val=100%

Let us examine a further case.
Q. Determine its reported remaining at 0.5 h, 20 µM: CCCCCCCCc1ccc(OCC(=O)Cn2cc(C(=O)CCCCCO)c3cc(C(=O)O)ccc32)cc1
A. 72%

---

- systemTested: NADPH--cytochrome P450 reductase (Mus musculus, UniProt P37040)
- Sequence (P37040 whole entry): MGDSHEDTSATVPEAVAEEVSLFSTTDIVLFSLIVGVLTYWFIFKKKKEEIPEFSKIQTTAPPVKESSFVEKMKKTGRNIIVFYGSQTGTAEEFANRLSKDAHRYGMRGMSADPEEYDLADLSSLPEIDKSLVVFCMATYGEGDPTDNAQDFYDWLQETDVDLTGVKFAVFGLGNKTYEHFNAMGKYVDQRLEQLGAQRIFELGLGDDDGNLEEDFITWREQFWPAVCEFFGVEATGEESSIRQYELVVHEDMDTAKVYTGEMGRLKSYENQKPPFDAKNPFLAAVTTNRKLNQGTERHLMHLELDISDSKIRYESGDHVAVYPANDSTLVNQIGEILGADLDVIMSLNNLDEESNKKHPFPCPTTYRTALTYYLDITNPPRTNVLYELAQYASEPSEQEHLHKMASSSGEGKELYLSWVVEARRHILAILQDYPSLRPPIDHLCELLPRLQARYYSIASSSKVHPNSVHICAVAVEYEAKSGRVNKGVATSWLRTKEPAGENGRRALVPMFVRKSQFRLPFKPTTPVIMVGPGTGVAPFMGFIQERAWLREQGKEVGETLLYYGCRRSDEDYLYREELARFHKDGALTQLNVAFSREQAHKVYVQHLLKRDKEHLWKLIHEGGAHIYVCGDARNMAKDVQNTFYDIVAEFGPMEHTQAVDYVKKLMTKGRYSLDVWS
- testDetails: Metabolic stability in CD-1 mouse liver S9 fraction assessed as NADPH CYP450 reductase-mediated compound metabolism by measuring compound remaining in presence of NADPH at 20 uM after 30 mins by HPLC method
- Type: ADME
- reportedConditions: read-out: Stability
For each entry below, report its remaining at 0.5 h, 20 µM value.
One number for each entry, in %.

chemicalsmiles=CCCCCCCCc1ccc(OCC(=O)Cn2cc(C(=O)CCCCC)c3cc(C(=O)O)ccc32)cc1 val=86

Let us examine a further case.
Q. Determine its reported remaining at 0.5 h, 20 µM: CCCCCCCCc1ccc(OCC(=O)Cn2cc(C(=O)CCCCCO)c3cc(C(=O)O)ccc32)cc1
A. 78

---

- Test system: UGT
- testDetails: Metabolic stability in Wistar rat liver S9 fraction assessed as UGT-mediated glucuronidation of compound by measuring compound remaining at 5 uM preincubated for 3 mins followed by UDPGA addition measured after 60 mins by HPLC/MS analysis
- Assay type: ADME
- reportedConditions: read-out: Stability
For each entry below, report its remaining at 1 h, 5 µM value.
One number for each entry, in %.

chemicalsmiles=CCCCCCCCc1ccc(OCC(=O)Cn2cc(C(=O)CCCCCO)c3cc(C(=O)O)ccc32)cc1 val=43

Let us examine a further case.
Q. Determine its reported remaining at 1 h, 5 µM: CCCCCCCCc1ccc(OCC(=O)Cn2cc(C(=O)CCCCC)c3cc(C(=O)O)ccc32)cc1
A. 83

---

- systemTested: NADPH--cytochrome P450 reductase (Rattus norvegicus, UniProt P00388)
- Sequence (P00388 whole entry): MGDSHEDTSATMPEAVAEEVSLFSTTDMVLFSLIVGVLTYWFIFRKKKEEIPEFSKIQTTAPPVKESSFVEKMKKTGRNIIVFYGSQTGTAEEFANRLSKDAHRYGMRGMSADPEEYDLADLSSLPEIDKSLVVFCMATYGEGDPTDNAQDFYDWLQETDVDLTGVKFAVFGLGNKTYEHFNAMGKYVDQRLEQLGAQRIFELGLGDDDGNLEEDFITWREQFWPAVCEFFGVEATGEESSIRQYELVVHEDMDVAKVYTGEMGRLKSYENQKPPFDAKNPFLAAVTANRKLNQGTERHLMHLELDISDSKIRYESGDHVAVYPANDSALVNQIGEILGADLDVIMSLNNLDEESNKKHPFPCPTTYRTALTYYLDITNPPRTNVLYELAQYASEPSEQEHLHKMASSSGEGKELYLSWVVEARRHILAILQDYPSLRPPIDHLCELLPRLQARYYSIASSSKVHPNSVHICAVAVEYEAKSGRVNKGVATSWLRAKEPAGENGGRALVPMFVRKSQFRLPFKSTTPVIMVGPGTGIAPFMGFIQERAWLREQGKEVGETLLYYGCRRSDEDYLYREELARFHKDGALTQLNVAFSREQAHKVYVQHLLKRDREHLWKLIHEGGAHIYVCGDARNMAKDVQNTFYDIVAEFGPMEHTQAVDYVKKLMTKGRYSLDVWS
- testDetails: Metabolic stability in rat liver microsomes assessed as NADPH CYP450 reductase-mediated compound metabolism by measuring compound remaining in presence of NADPH at 20 uM after 30 mins by HPLC
- Format: ADME
- reportedConditions: read-out: Stability
measuredParameter: remaining at 0.5 h, 20 µM (%)
One number for each entry, in %.

chemicalsmiles=CCCCCCCCc1ccc(OCC(=O)Cn2cc(C(=O)CCCCCO)c3cc(C(=O)O)ccc32)cc1 measuredparameter="remaining at 0.5 h, 20 µM" val=86

Let us examine a further case.
Q. Determine its reported remaining at 0.5 h, 20 µM: CCCCCCCCc1ccc(OCC(=O)Cn2cc(C(=O)CCCCC)c3cc(C(=O)O)ccc32)cc1
A. 93
